Task for the reader: assign each of the following molecules its reported pIC50.
target: P. aeruginosa LpxC (Pseudomonas aeruginosa, UniProt P47205); experiment: P. aeruginosa LpxC Inhibition Assay (LC-MS/MS); settings: 1 nM P. aeruginosa LpxC, 30 min pre-incubation, 2 μM UDP-3-O-(R-3-hydroxydecanoyl)-GlcNAc, pH 7.5
Sequence (P47205 whole entry): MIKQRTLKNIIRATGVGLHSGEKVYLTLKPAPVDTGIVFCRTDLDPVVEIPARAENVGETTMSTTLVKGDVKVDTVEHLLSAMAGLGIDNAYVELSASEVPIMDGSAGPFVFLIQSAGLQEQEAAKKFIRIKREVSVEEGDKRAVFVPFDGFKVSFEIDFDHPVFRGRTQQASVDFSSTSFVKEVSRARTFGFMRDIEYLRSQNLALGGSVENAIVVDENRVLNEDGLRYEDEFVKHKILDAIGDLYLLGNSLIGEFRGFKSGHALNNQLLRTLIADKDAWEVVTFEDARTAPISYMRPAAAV
pIC50: −log10 of the molar value.

Return pIC50 for the following molecule: "C[C@@](CCc1cc(C#CCCF)on1)(C(=O)NO)S(C)(=O)=O"
8.52

Please list pIC50 recorded for the molecule CC(NCc1cc(C#Cc2ccccc2)on1)(C(=O)NO)C(O)c1cc(CO)on1 (centres unmarked)
> 9.00

Recall and state the measured pIC50 for "COCCCCC#Cc1cc(CN[C@](C)(C(=O)NO)[C@@H](O)c2cc(C)on2)no1" .
8.52

Read the entry "C[C@@](CCc1cc(C#CC2CC(F)(F)C2)on1)(C(=O)NO)S(C)(=O)=O" and write its reported pIC50.
> 9.00

Check the records and state pIC50 for "Cc1cc([C@H](O)[C@](C)(NCc2cc(C#CC3CCC3)on2)C(=O)NO)no1"
> 9.00

Supply recorded pIC50 for CC(NCc1cc(C#CC2CC2)on1)(C(=O)NO)C(O)c1cc(C2CC2)on1 (centres unmarked) here.
8.70

Kindly indicate its recorded pIC50. Item: "C/C=C(\C)c1cc(CC[C@](C)(C(=O)NO)S(C)(=O)=O)no1"
8.52

Return pIC50 (reported value) for this molecule: "CC/C=C/c1cc(CC[C@](C)(C(=O)NO)S(C)(=O)=O)no1"
> 9.00

Please give measured pIC50 of the following entry: "CC1(C#Cc2cc(CC[C@](C)(C(=O)NO)S(C)(=O)=O)no2)CC1"
> 9.00

Read the entry "CCCC#Cc1cc(CC[C@](C)(C(=O)NO)S(C)(=O)=O)no1" and write its reported pIC50.
> 9.00

Specify pIC50 for "CC#Cc1cc(CC[C@](C)(C(=O)NO)S(C)(=O)=O)no1" and stop.
8.70

Supply pIC50 value. Item: "CC(C)(C)C#Cc1cc(CC[C@](C)(C(=O)NO)S(C)(=O)=O)no1"
> 9.00

Please look at this molecule and report its pIC50: COC(CO)c1ccc(C#Cc2cc(CCC(C)(C(=O)NO)S(C)(=O)=O)no2)cc1 (centres unmarked)
> 9.00

Return pIC50 (reported value) for this molecule: "C[C@@](CCc1cc(/C(F)=C/C2CC2)on1)(C(=O)NO)S(C)(=O)=O"
> 9.00

Give me measured pIC50, please, for this molecule: "C[C@@](CCc1cc(C#Cc2ccc([C@@H](O)CO)cc2)on1)(C(=O)NO)S(C)(=O)=O"
> 9.00

For C[C@@H](O)Cc1ccc(C#Cc2cc(CCC(C)(C(=O)NO)S(C)(=O)=O)no2)cc1 (some centres unmarked) , write its pIC50.
> 9.00

Give the reported value of pIC50 for this record: "CO[C@H](CO)c1ccc(C#Cc2cc(CC[C@](C)(C(=O)NO)S(C)(=O)=O)no2)cc1"
> 9.00
